Experiment: Pharmacokinetic test of rats (intravenous and intragastric administration)
Assay type: in vivo
Settings: rat, plasma; SD rats, intravenous 1 mg/kg
Listed compounds paired with reported AUC(0-t)

- Compound: "CCOc1ncc(C)c2c1[C@H](c1ccc(C#N)c3c1OCC3)C(C(N)=O)=C(C)N2"
  AUC(0-t): "94.1 µg·h/mL"
- Compound: "CCOc1ncc(C)c2c1[C@H](c1ccc(C#N)c3c1OCO3)C(C(N)=O)=C(C)N2"
  AUC(0-t): "106 µg·h/mL"
- Compound: "CCOc1ncc(C)c2c1[C@H](c1ccc(C#N)cc1OC)C(C(N)=O)=C(C)N2 [Finerenone, reference compound]"
  AUC(0-t): "91.2 µg·h/mL"

---

System name: CYP3A4 (Homo sapiens)
Sequence (P08684 2-503 limits assumed): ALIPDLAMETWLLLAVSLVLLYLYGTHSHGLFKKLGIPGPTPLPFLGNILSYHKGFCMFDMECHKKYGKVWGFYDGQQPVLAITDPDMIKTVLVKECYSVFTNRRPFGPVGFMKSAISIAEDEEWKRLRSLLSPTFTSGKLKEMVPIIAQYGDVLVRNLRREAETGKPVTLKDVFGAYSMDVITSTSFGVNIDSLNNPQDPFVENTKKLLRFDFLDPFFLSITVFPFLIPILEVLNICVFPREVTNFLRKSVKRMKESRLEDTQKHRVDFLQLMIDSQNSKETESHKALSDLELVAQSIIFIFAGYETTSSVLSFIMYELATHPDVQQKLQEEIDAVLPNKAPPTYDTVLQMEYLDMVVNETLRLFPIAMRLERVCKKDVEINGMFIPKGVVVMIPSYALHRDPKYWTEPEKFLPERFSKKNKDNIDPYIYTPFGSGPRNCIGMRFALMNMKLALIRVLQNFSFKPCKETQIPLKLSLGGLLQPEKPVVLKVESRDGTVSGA
Experiment: biochemical
Type: in vitro ADME
Settings: CYP3A4-5M IC50, human CYP3A4, CYP3A4-5M
pIC50: −log10 of the molar value.

- Molecule: "CCOc1ncc(C)c2c1[C@H](c1ccc(C#N)c3c1OCC3)C(C(N)=O)=C(C)N2 [Example 36]"
  pIC50: 4.64
- Molecule: "CCOc1ncc(C)c2c1[C@H](c1ccc(C#N)c3c1OCO3)C(C(N)=O)=C(C)N2 [Example 62]"
  pIC50: 4.86
- Molecule: "CCOc1ncc(C)c2c1[C@H](c1ccc(C#N)cc1OC)C(C(N)=O)=C(C)N2 [Finerenone, reference compound]"
  pIC50: 5.00

---

Experiment: Pharmacokinetic test of rats (intravenous and intragastric administration)
Format: in vivo
Settings: rat, plasma; SD rats, intragastric and oral administration 5 mg/kg

- Compound: "CCOc1ncc(C)c2c1[C@H](c1ccc(C#N)c3c1OCC3)C(C(N)=O)=C(C)N2"
  Cmax: "37 µg/mL"
- Compound: "CCOc1ncc(C)c2c1[C@H](c1ccc(C#N)c3c1OCO3)C(C(N)=O)=C(C)N2"
  Cmax: "24 µg/mL"
- Compound: "CCOc1ncc(C)c2c1[C@H](c1ccc(C#N)cc1OC)C(C(N)=O)=C(C)N2 [Finerenone, reference compound]"
  Cmax: "23.8 µg/mL"

---

System name: mineralocorticoid receptor (MR) (Homo sapiens)
Sequence (P08235 726-964 limits assumed, species assumed): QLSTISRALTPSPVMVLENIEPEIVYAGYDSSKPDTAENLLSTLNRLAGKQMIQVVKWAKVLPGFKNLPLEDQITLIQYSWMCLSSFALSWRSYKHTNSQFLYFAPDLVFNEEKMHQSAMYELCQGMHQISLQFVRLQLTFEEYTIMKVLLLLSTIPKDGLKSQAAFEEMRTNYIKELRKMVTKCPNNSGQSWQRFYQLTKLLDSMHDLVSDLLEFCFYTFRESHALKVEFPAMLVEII
Experiment: MR Gal4-LBD luciferase reporter gene assay in HEK293T cells (antagonism of 0.8 nM aldosterone)
Recorded IC50 values for a group of compounds are listed next.

- Compound: "CC1=C(C(N)=O)C(c2ccc(C#N)c3c2OCC3)c2c(OC3CCC3)ncc(C)c2N1 (centres unmarked) [Example 21]"
  IC50 / nM: 20.2
- Compound: "CC1=C(C(N)=O)C(c2ccc(C#N)c3c2OCC3)c2c(OC3CC3)ncc(C)c2N1 (centres unmarked) [Example 18]"
  IC50 / nM: 28.5
- Compound: "CC1=C(C(N)=O)C(c2ccc(C#N)c3c2OCC3)c2c(OC(F)(F)F)ncc(C)c2N1 (centres unmarked) [Example 23]"
  IC50 / nM: 24.8
- Compound: "CCOc1ncc(C)c2c1[C@H](c1ccc(C#N)c3c1OCCC3)C(C(N)=O)=C(C)N2 [Example 32]"
  IC50 / nM: 8
- Compound: "CCOc1nn(C)c2c1C(c1ccc(C#N)cc1OC)C(C#N)=C(C)N2 (centres unmarked) [Example 9]"
  IC50 / nM: 661
- Compound: "CCOc1ncc(C)c2c1[C@H](c1ccc(C#N)c3c1OCO3)C(C(N)=O)=C(C)N2 [Example 62]"
  IC50 / nM: 14.8
- Compound: "CCOc1ncc(C)c2c1C(c1ccc(C#N)c3c1OCCO3)C(C(N)=O)=C(C)N2 (centres unmarked) [Example 25]"
  IC50 / nM: 37.5
- Compound: "CC1=C(C(N)=O)C(c2ccc(C#N)c3c2OCC3)c2c(OCC3CCC3)ncc(C)c2N1 (centres unmarked) [Example 22]"
  IC50 / nM: 8.7
- Compound: "CC1=C(C(N)=O)C(c2ccc(C#N)c3c2OCC3)c2c(OC(C)C)ncc(C)c2N1 (centres unmarked) [Example 20]"
  IC50 / nM: 15.2
- Compound: "CCOc1nc2c(c3c1C(c1ccc(C#N)cc1OC)C(C(N)=O)=C(C)N3)CCC2 (centres unmarked) [Example 4]"
  IC50 / nM: 111
- Compound: "COc1cc(C#N)ccc1C1C(C#N)=C(C)Nc2c(C)cn3nccc3c21 (centres unmarked) [Example 7]"
  IC50 / nM: 322
- Compound: "COc1cc(C#N)ccc1C1C(C#N)=C(C)Nc2c(C)cc3nncn3c21 (centres unmarked) [Example 10]"
  IC50 / nM: 348
- Compound: "CCOc1ncc(C)c2c1[C@H](c1ccc(C#N)c3c1OCCO3)C(C(N)=O)=C(C)N2 [Example 40]"
  IC50 / nM: 12.7
- Compound: "CC1=C(C(N)=O)C(c2ccc(C#N)c3c2OCC3)c2c(OCC3CC(F)(F)C3)ncc(C)c2N1 (centres unmarked) [Example 16]"
  IC50 / nM: 34.1
- Compound: "CCOc1ncc(C)c2c1C(c1ccc(C#N)c3c1OCC3)C(C(N)=O)=C(C)N2 (centres unmarked) [Example 11]"
  IC50 / nM: 92.1
- Compound: "CC1=C(C(N)=O)C(c2ccc(C#N)c3c2OCC3)c2c(OCC(F)(F)F)ncc(C)c2N1 (centres unmarked) [Example 24]"
  IC50 / nM: 7.9
- Compound: "CCOc1ncc(C)c2c1C(c1ccc(C#N)cc1OC)C(c1nnc(C)o1)=C(C)N2 (centres unmarked) [Example 3]"
  IC50 / nM: 113
